- System: HEp-2
- Protocol details: Antiproliferative activity against human HEp2 cell line at 1 uM relative to control
- Format: functional
*1 amine or outer side, *2 acyl side, *3 side chain or, on linkers, in order; H or OH if unused. Where a SMILES comes first, the peptide text is derived from it. [ ]: non-standard residue; d: D form. X1 = O=C(C(N[*:1])C1C2CC3CC(C2)CC1C3)[*:2]; X2 = O=C(C1(N[*:1])C2CC3CC(C2)CC1C3)[*:2]
Can you tell me inhibition at 1 µM for the items I'm about to list?
# unit: % | format: bare number

Consider N[C@@H](Cc1ccc(O)cc1)C(=O)N[C@@H](C(=O)NCC(=O)O)C1C2CC3CC(C2)CC1C3 (stereo partly drawn) . Its measured inhibition at 1 µM is 4.6

Consider N[C@@H](Cc1ccc(O)cc1)C(=O)NC1(C(=O)O)C2CC3CC(C2)CC1C3 (stereo partly drawn) . Its measured inhibition at 1 µM is 14.2

Consider CSCC[C@H](NC(=O)[C@H](Cc1ccccc1)NC(=O)CNC(=O)C(NC(=O)[C@@H](N)Cc1ccc(O)cc1)C1C2CC3CC(C2)CC1C3)C(=O)O (stereo partly drawn) (H-Y[X1]GFM-OH) . Its measured inhibition at 1 µM is 13.7

Consider CSCC[C@H](NC(=O)[C@H](Cc1ccccc1)NC(=O)CNC(=O)C1(NC(=O)[C@@H](N)Cc2ccc(O)cc2)C2CC3CC(C2)CC1C3)C(=O)O (stereo partly drawn) (H-Y[X2]GFM-OH) . Its measured inhibition at 1 µM is 1

Consider N[C@@H](Cc1ccc(O)cc1)C(=O)N[C@H](C(=O)O)C1C2CC3CC(C2)CC1C3 (stereo partly drawn) . Its measured inhibition at 1 µM is 6.2

Consider N[C@@H](Cc1ccc(O)cc1)C(=O)N[C@H](C(=O)NCC(=O)O)C1C2CC3CC(C2)CC1C3 (stereo partly drawn) . Its measured inhibition at 1 µM is 2.7

Consider N[C@@H](Cc1ccc(O)cc1)C(=O)N[C@@H](C(=O)O)C1C2CC3CC(C2)CC1C3 (stereo partly drawn) . Its measured inhibition at 1 µM is 8.5

Consider CSCC[C@H](NC(=O)[C@H](Cc1ccccc1)NC(=O)CNC(=O)CNC(=O)[C@@H](N)Cc1ccc(O)cc1)C(=O)O . Its measured inhibition at 1 µM is 5.2

Data provenance is ChEMBL document CHEMBL1147809.
